Measured IC50 by item
- target under test: JAK3 (Homo sapiens, UniProt P52333)
- Construct: 5 μl of catalytic domain recombinant Kinase enzyme+Tyr peptide substrate (Invitrogen, Calif.)
- Sequence (P52333 822-1111 limits assumed): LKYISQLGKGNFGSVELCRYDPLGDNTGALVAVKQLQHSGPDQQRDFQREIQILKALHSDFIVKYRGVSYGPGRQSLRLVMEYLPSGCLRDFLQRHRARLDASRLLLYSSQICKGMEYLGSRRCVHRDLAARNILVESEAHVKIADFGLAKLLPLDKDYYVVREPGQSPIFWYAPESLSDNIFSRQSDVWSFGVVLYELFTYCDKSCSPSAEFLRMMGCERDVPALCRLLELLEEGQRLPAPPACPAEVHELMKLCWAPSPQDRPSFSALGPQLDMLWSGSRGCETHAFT
- method description: Z'-LYTE kinase assay, JAK3 tyrosine phosphorylation activity

NC(=O)c1cnc(Nc2ccc(F)c(NC(=O)N3CCC3)c2)cc1NCc1cccnc1; 10 to 100 nM
NC(=O)c1cnc(Nc2cc(NC(=O)N3CCCC3)ccc2F)nc1NCc1ccccc1; 100 to 1000 nM
CC[C@@H](C)Nc1nc(Nc2ccc(Cl)c(NC(=O)N3CCCC3)c2)ncc1C(N)=O; 1 to 10 nM
COCC(=O)N(c1cccc(Nc2ncc(C(N)=O)c(NCc3ccccc3)n2)c1)C1CC1; 100 to 1000 nM

// IC50 lookup, key: "COCC(=O)N(C)c1cccc(Nc2ncc(C(N)=O)c(NC3CCCC3)n2)c1"
1 to 10 nM

Same lookup for "CC(=O)Nc1cccc(Nc2ncc(C(N)=O)c(N[C@@H](CO)c3ccccc3)n2)c1" , please.
10 to 100 nM

Thanks! And "NC(=O)c1cnc(Nc2cccc(NC(=O)C3CC3)c2)nc1NCC(F)(F)F" ?
10 to 100 nM

Check "CNC(=O)Nc1cc(Nc2ncc(C(N)=O)c(NCc3ccccc3)n2)ccc1F" too.
1 to 10 nM

====

- target under test: JAK1 (Homo sapiens)
- Construct: 5 μl of catalytic domain recombinant Kinase enzyme+Tyr peptide substrate (Invitrogen, Calif.)
- Sequence (P23458 875-1153 limits assumed): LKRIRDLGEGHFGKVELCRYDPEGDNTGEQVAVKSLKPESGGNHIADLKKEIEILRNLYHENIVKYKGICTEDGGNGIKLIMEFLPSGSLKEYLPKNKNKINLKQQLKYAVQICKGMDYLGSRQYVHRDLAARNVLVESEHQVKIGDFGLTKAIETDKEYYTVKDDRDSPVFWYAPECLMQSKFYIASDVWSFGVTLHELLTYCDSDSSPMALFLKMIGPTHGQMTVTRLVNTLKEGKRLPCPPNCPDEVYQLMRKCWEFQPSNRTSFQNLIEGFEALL
- method description: Z'-LYTE kinase assay, JAK1 tyrosine phosphorylation activity
- condition details: read-out: JAK 1 IC50
pIC50: −log10 of the molar value.
Catalogue of pIC50 readings, one per entry.

Worked cases, answers included:
CC(=O)Nc1cc(Nc2ncc(C(N)=O)c(Nc3cccc4nn(C)cc34)n2)ccc1OCCN1CCCC1; 6.00 to 7.00
NC(=O)c1cnc(Nc2ccc(Cl)c(NC(=O)NC3CCC3)c2)nc1NCc1ccccc1; < 6.00
COCC(=O)N(c1cccc(Nc2ncc(C(N)=O)c(NCc3ccccc3)n2)c1)C1CC1; < 6.00
CC(=O)Nc1cccc(Nc2ncc(C(N)=O)c(N[C@@H](CO)c3ccccc3)n2)c1; 6.00 to 7.00
CC(=O)Nc1cccc(Nc2ncc(C(N)=O)c(NC[C@@H](O)c3ccccc3)n2)c1; 6.00 to 7.00
CC(C)CNc1cc(Nc2cccc(NC(=O)N3CCCC3)c2)ncc1C(N)=O; 6.00 to 7.00
NC(=O)c1cnc(Nc2cccc(NC(=O)N3CCOCC3)c2)cc1NCc1cccc(F)c1; 6.00 to 7.00

// pIC50 lookup, key: "NC(=O)c1cnc(Nc2cccc(NC(=O)N3CCCC3)c2)nc1NCc1cccc(F)c1"
7.00 to 8.00

====

- target under test: JAK3 (Homo sapiens, UniProt P52333)
- Construct: 5 μl of catalytic domain recombinant Kinase enzyme+Tyr peptide substrate (Invitrogen, Calif.)
- method description: Z'-LYTE kinase assay, JAK3 tyrosine phosphorylation activity
- Description: JAK and TYK2 tyrosine phosphorylation activity is measured using the Z′-LYTE™ Technology developed by Invitrogen Corporation (Carlsbad, Calif.). For JAK1, JAK2 and JAK3 the Z′-LYTE™ Kinase Assay Kit-Tyr6 Peptide (part number PV4122) was used. […] The Z′-LYTE™ biochemical assay employs a fluorescence resonance energy transfer (FRET) coupled-enzyme format and is based on the differential sensitivity of phosphorylated and non-phosphorylated peptides to proteolitic cleavage. […]
reported property: IC50

CC(=O)Nc1cccc(Nc2ncc(C(N)=O)c(NCC3CCCC3)n2)c1; < 1 nM

Requested field: IC50. Item: "COCC(=O)Nc1cccc(Nc2ncc(C(N)=O)c(NCc3ccc(C)cc3)n2)c1"
10 to 100 nM

Param item: "NC(=O)c1cnc(Nc2ccc(F)c(NC(=O)N3CCC3)c2)nc1NCc1ccccc1"
1 to 10 nM

Likewise for "CNC(=O)Nc1cccc(Nc2ncc(C(N)=O)c(NCc3ccccc3)n2)c1" ?
1 to 10 nM

Field entry: "CC(=O)Nc1cc(Nc2ncc(C(N)=O)c(NCc3cccc(F)c3)n2)ccc1OCCN(C)C"
1 to 10 nM

Next compound: "CC(=O)Nc1cccc(Nc2ncc(C(N)=O)c(NC[C@@H](O)CO)n2)c1"
10 to 100 nM

Similarly, "CN(C)[C@@H]1CCN(C(=O)Nc2cccc(Nc3cc(NCc4cccnc4)c(C(N)=O)cn3)c2)C1" ?
10 to 100 nM

# iterate: "CC(=O)Nc1cccc(Nc2cc(NCc3cccc(Cl)c3)c(C(N)=O)cn2)c1"
10 to 100 nM
